- Tested on: HT-29
- protocol-summary: NCI tumour cell line growth inhibition, 48 h
Activity calls are given as the source filed them. Rule as the data show it: active = GI50 up to about 1.1 µM and inactive = higher.
Provide the recorded GI50 for the entries that follow.

Fill in the blank: the reported GI50 of COc1ccc(/C(=N\NC(=S)NN)C(c2ccc(OC)cc2)C2C(=O)Oc3ccccc32)cc1 (configuration not stated) is ____. > 10 µM (inactive)

Fill in the blank: the reported GI50 of COc1ccc(C2Oc3c(cccc3-c3c(-c4ccc(O)cc4)oc4cc(O)cc(O)c4c3=O)C(=O)C2O)cc1O (configuration not stated) is ____. > 100 µM (inactive)

Fill in the blank: the reported GI50 of O=[N+]([O-])c1ccc(N2N=C(c3ccc(NCc4nc5ccccc5[nH]4)cc3)CC2c2ccco2)cc1 (configuration not stated) is ____. 27.5 µM (inactive)

Fill in the blank: the reported GI50 of O=C1CSC(c2cc3cc(Br)ccc3nc2Cl)N1c1ccc(Cl)cc1 (configuration not stated) is ____. 32.9 µM (inactive)

Fill in the blank: the reported GI50 of Cc1cccc(/C=N/NC(=S)NCCc2ccccn2)n1 is ____. 27.9 µM (inactive)

Fill in the blank: the reported GI50 of COc1cc(Br)c(CC2C3=C(CCN2C(=O)C2CCC2)CC2(CC3)OCCO2)cc1O (configuration not stated) is ____. 24.2 µM (inactive)

Fill in the blank: the reported GI50 of C/C(=N\[N+](C)(C)C)c1ccc(C)c(C)c1 is ____. 21.1 µM (inactive)

----------
- System: OVCAR-4
- protocol-summary: NCI tumour cell line growth inhibition, 48 h
Calls of active or inactive are those of the source. Cut-off read from the data, not from the text of the source: active = GI50 up to about 1.1 µM and inactive = higher.
Respond with a class label; see y (active), n (inactive)

// outcome(item) with item = CCOC(=O)C1=C(NC(C)(C)C)OCC1=O n

// outcome(item) with item = O=S(=O)(O)c1ccc2c(/N=N/c3cccc4ccccc34)c(O)ccc2c1 n

// outcome(item) with item = CCC(=O)Nc1ccc(/N=N/N(C)C)cc1 n

// outcome(item) with item = COc1ccc(N(C)CN(C)c2nc(N(C)C)nc(N(C)C)n2)cc1 n

// outcome(item) with item = CC(C)(Br)C(Br)CC/C(=C/CBr)CBr.CC(C)(Br)C(Br)CC/C(=C\CBr)CBr (stereo unspecified) n

// outcome(item) with item = NCCCNCCCCN1CC1 y

----------
- Tested on: MOLT-4
- protocol-summary: NCI tumour cell line growth inhibition, 48 h
Activity calls are given as the source filed them. Cut-off read from the data, not from the text of the source: active = GI50 up to about 1.1 µM and inactive = higher.
Respond with a class label; see active, inactive

// outcome(item) with item = N#Cc1ccc(Oc2nc3ccccc3nc2C(=O)O)cc1 inactive

// outcome(item) with item = CCOC(=O)c1sc2nc1CSc1sc(=S)sc1SCc1nc(sc1C(=O)OCC)-c1nc(c(C(=O)OCC)s1)CSc1sc(=S)sc1SCc1nc-2sc1C(=O)OCC inactive

// outcome(item) with item = C=CC[C@@H]1C=C[C@@H](C(=O)OC)n2c(=O)n(-c3ccccc3)c(=O)n21 inactive

// outcome(item) with item = COC(=O)[C@@H]1CN(C(=O)CCc2ccccc2)C(=O)N1 inactive

// outcome(item) with item = CC(=O)NC1=C(NCCO)C(=O)c2ccccc2C1=O inactive

// outcome(item) with item = COC1CC(OC(=O)c2ccccc2)C(OC(=O)c2ccccc2)C(C)O1 (stereo not given) inactive

// outcome(item) with item = C[C@]12CCC[C@H](O)[C@H]1C[C@H](CO)CC2 inactive

// outcome(item) with item = C=CCCN1CCc2c([nH]c3ccccc23)C1C(=O)O (stereo not given) inactive

// outcome(item) with item = COc1ccc(/C=C2/S/C(=N\c3ccccc3)N(NC(=O)Cc3ccccc3)C2=O)cc1 inactive

// outcome(item) with item = Nc1ncnc(NC2C=C(CO)C(O)C2O)c1[N+](=O)[O-] (stereo not given) inactive

// outcome(item) with item = N#Cc1ccccc1Nc1ccccc1S inactive

// outcome(item) with item = CC(C)=CCC/C(C)=C/CO [GERANIOL] inactive

// outcome(item) with item = Clc1ccc(-c2ccc(-c3nn4c(CNc5ccccc5)nnc4s3)o2)c(Cl)c1 inactive

// outcome(item) with item = CCC(C)C(=O)OCC(=O)c1ccc(-c2ccccc2)cc1 (stereo not given) inactive

// outcome(item) with item = COC1C(N)C(OC2C(Oc3cccc4c(O)c5c(=O)oc6ccc(C)c7c(=O)oc(c34)c5c67)OC(C)C(O)C2(C)O)OC(C)C1O (stereo not given) active

// outcome(item) with item = CC(=O)NNc1nc(C)c(C(=O)NNC(=O)C(=O)Nc2ccc([N+](=O)[O-])cc2C#N)s1 inactive

// outcome(item) with item = N#C/C(=C\c1cc(O)cc(O)c1)C(N)=O inactive

// outcome(item) with item = CCN(CC)c1c(C(=O)/C=C/c2ccccc2)c(-c2ccccc2)nn(C)c1=O inactive

// outcome(item) with item = COC(=O)C1=C(OC(=O)/C(=C/c2ccccc2)c2ccc(Cl)cc2)C(C(=O)OC)[C@@]2(O)[C@@H](C(=O)OC)[C@H](C)C[C@@H]1[C@@H]2C(=O)OC (stereo not given in full) inactive

// outcome(item) with item = CC(=O)C1=C(C)O[C@@H]2O[C@H](COCc3ccccc3)[C@@H](OCc3ccccc3)[C@H](O)[C@@H]2S1 inactive

----------
- Test system: HOP-62
- protocol-summary: NCI tumour cell line growth inhibition, 48 h
Active and inactive are the calls of the source. Rule as the data show it: active = GI50 up to about 1.1 µM and inactive = higher.
value-type: GI50

Fill in the blank: the reported GI50 of O=C(Nc1nnc(-c2c(Cl)c(Cl)c(Cl)c(Cl)c2-c2nc3cc(C(=O)c4ccccc4)ccc3[nH]2)o1)c1ccccc1 is ____. 10.4 µM (inactive)

Fill in the blank: the reported GI50 of COc1c(O)c2ccccc2c2cc(O)ccc12 is ____. 10.6 µM (inactive)

Fill in the blank: the reported GI50 of O=C1/C(=C\c2ccc([N+](=O)[O-])o2)SC2NC(COc3ccc(Cl)cc3)=NN12 (stereo unspecified) is ____. 22.5 µM (inactive)

Fill in the blank: the reported GI50 of C[N+](C)(C)CCC(=O)CC[N+](C)(C)C is ____. > 100 µM (inactive)

Fill in the blank: the reported GI50 of CC(=O)NNC1=NN(C(C)=O)C2(S1)C(=O)Nc1ccc(Br)cc12 (stereo unspecified) is ____. > 100 µM (inactive)

Fill in the blank: the reported GI50 of CCCCC1Cc2ccccc2-c2n1c1ccccc1[n+]2C (stereo unspecified) is ____. 24.9 µM (inactive)

----------
Provide the recorded GI50 for the entries that follow.
- Tested on: MDA-N
- protocol-summary: NCI tumour cell line growth inhibition, 48 h
Calls of active or inactive are those of the source. Rule as the data show it: active = GI50 up to about 1.1 µM and inactive = higher. Where a SMILES comes first, the peptide text is derived from it. [ ]: non-standard residue; d: D form. The star is where a group is joined. ξ: configuration not given here. X38 = O=C(OCc1ccccc1)[C@@H]1CCC[C@H]1N*; Fmoc = O=C(OCC1c2ccccc2-c2ccccc21)*; ξW = NC(Cc1c[nH]c2ccccc12)C(=O)O; ξF = NC(Cc1ccccc1)C(=O)O; Boc = CC(C)(C)OC(=O)*; ξK = NCCCCC(N)C(=O)O; ξT = CC(O)C(N)C(=O)O; tBu = CC(C)(C)*

Return GI50 measured with MDA-N given this molecule: CN(C)c1ccc(C2=C([O-])c3cc(-[n+]4ccccc4)ccc3C2=O)cc1 > 100 µM (inactive)

Return GI50 measured with MDA-N given this molecule: CSC(=S)Nc1cc(C)cc(C)n1 > 31.6 µM (inactive)

Return GI50 measured with MDA-N given this molecule: Cc1cc(C)c(O)c(CN2CCN(C(C)C)CCN(C(C)C)CC2)c1 20.6 µM (inactive)

Return GI50 measured with MDA-N given this molecule: O=C(O)c1cc(C(=O)O)nc(C(=O)O)c1 > 100 µM (inactive)

Return GI50 measured with MDA-N given this molecule: CON(C)C(C#N)=C(C#N)C#N > 10 µM (inactive)

Return GI50 measured with MDA-N given this molecule: CSc1nc(SC)c2c(C)cn(C3OC(C)C(O)C(O)C3O)c2n1 (stereo not given) 67.6 µM (inactive)

Return GI50 measured with MDA-N given this molecule: CCO/C(=N/S(=O)(=O)C(F)(F)F)N(C(C)C)C(C)C > 100 µM (inactive)

Return GI50 measured with MDA-N given this molecule: O=C1C=C(Nc2cccnc2)c2ccccc2/C1=N/O 12.6 µM (inactive)

Return GI50 measured with MDA-N given this molecule: CC(OC(C)(C)C)C(NC(=O)C(CCCCNC(=O)OC(C)(C)C)NC(=O)C(Cc1c[nH]c2ccccc12)NC(=O)C(Cc1ccccc1)NC(=O)OCC1c2ccccc2-c2ccccc21)C(=O)NC(Cc1ccccc1)C(=O)N[C@@H]1CCC[C@H]1C(=O)OCc1ccccc1 (stereo not given in full) (Fmoc-[ξF][ξW][ξK](Boc)[ξT](tBu)[ξF]-X38) > 100 µM (inactive)

Return GI50 measured with MDA-N given this molecule: Clc1cccc(Cl)c1C1SCc2nc3cc4ccccc4cc3n21 (stereo not given) > 100 µM (inactive)
